Test system: DU145
measurement description: Euclidean distance of Cell Painting phenotypic profile (signed KS, 77 features) to DMSO centroid (dimensionless distance); 5 or 10 uM (library dependent); higher = stronger phenotypic change vs DMSO (phenoactivity)
condition context: 48 h

compound	Euclidean distance
C=CC(=O)Nc1cccc(Oc2nc(Nc3ccc(N4CCN(C)CC4)cc3OC)ncc2Cl)c1	1.43
CC(C)Oc1ccc(-c2nc(-c3cccc4c3CC[C@@H]4NCCO)no2)cc1C#N [Ozanimod (RPC1063)]	0.79
CC(=O)OCC(=O)[C@@]1(O)CC[C@H]2[C@@H]3CCC4=CC(=O)CC[C@]4(C)[C@H]3C(=O)C[C@@]21C [Cortisone acetate]	1.1
CCCCCCCCCCCC(=O)O	1.21
C=C1C(=O)O[C@H]2[C@H]1CC/C(C)=C/CC[C@@]1(C)O[C@@H]21 [(-)-Parthenolide]	3.27
CN(C(=O)CN(CCO)CC(=O)N(C)C(C)(C)Cc1ccccc1)C(C)(C)Cc1ccccc1	1.13
COc1ccc2cc1Oc1ccc(cc1)C[C@H]1c3cc(c(OC)cc3CCN1C)Oc1c(O)c(OC)cc3c1[C@H](C2)N(C)CC3	3.78
CC(C)c1cc(C(C)C)c(CC(=O)NS(=O)(=O)Oc2c(C(C)C)cccc2C(C)C)c(C(C)C)c1	0.813
Cn1c(=O)n(-c2ccc(C(C)(C)C#N)cc2)c2c3cc(-c4cnc5ccccc5c4)ccc3ncc21	1.66
COc1c(N2CCNC(C)C2)c(F)cc2c(=O)c(C(=O)O)cn(C3CC3)c12 (configuration not stated)	0.774
COc1ccc(CNC(=O)Nc2ncc([N+](=O)[O-])s2)cc1	0.841
CNCCc1ccccn1 [Betahistine 2HCl]	1.21
COc1cc(NS(=O)(=O)c2ccc(N)cc2)nc(OC)n1	1.61
O=C(Nc1nc(-c2cc(Cl)cs2)c(N2CCN(C3CCCCC3)CC2)s1)c1cnc(N2CCC(C(=O)O)CC2)c(Cl)c1	1.84
C[C@@H](Oc1cc(-c2cnn(C3CCNCC3)c2)cnc1N)c1c(Cl)ccc(F)c1Cl	3.56
CCN1CCN(Cc2ccc(-c3cc4c(N[C@H](C)c5ccccc5)ncnc4[nH]3)cc2)CC1	1.92
C[N+]1(C)CCC(OC(=O)C(O)(c2ccccc2)C2CCCC2)C1 (configuration not stated) [Glycopyrrolate]	1.06
